Hello, the source for this data is PubChem BioAssay AID2060600, in case you need it.

# Tested on: 996289-038-R-J1-PDC complex spheroid viability
# test-summary: Anticancer human tumor 996289-038-R-J1-PDC patient-derived colon adenocarcinoma cell line growth inhibition [CLK]; active means viability on the fitted dose curve at most 10% of control; inactive means the rest
# test-context: second compound 1 µM; first compound 0.316 µM
Outcome (select one): active, inactive

The following compounds have reported results that may help.
{"compound": "O=C(c1cc(Cc2n[nH]c(=O)c3ccccc23)ccc1F)N1CCN(C(=O)C2CC2)CC1 + CNC(=O)c1ccc(Nc2nc(OC3CCCC3)c3c(-c4ccc5nc(C)oc5c4)c[nH]c3n2)c(OC)c1", "assigned-category": "inactive"}
{"compound": "Nc1ccn(C2OC(CO)C(O)C2(F)F)c(=O)n1 (stereo not given) + CN1CCN(c2cc(C(=O)Nc3cc4cc(-c5cnn(C)c5)ccc4cn3)ccn2)CC1", "assigned-category": "active"}
{"compound": "CC1(C)CCC(CN2CCN(c3ccc(C(=O)NS(=O)(=O)c4ccc(NCC5CCOCC5)c([N+](=O)[O-])c4)c(Oc4cnc5[nH]ccc5c4)c3)CC2)=C(c2ccc(Cl)cc2)C1 + CN1CCN(c2cc(C(=O)Nc3cc4cc(-c5cnn(C)c5)ccc4cn3)ccn2)CC1", "assigned-category": "active"}
{"compound": "C=CC(=O)N1CCN(c2nc(=O)n(-c3c(C)ccnc3C(C)C)c3nc(-c4c(O)cccc4F)c(F)cc23)C(C)C1 (stereo not given) + CN1CCN(c2cc(C(=O)Nc3cc4cc(-c5cnn(C)c5)ccc4cn3)ccn2)CC1", "assigned-category": "active"}

Query: Per the assay record, what outcome was assigned to COc1ccc([C@@H](O)c2cc(-c3ncnc4cc(N5CCOCC5)ccc34)c(F)cc2Cl)nn1 + CN1CCN(c2cc(C(=O)Nc3cc4cc(-c5cnn(C)c5)ccc4cn3)ccn2)CC1 ?
Result: active

###

# Test system: 996289-038-R-J1-PDC complex spheroid viability
# test-summary: Anticancer human tumor 996289-038-R-J1-PDC cell line growth inhibition [CLK];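 further: spheroids exposed to the agents for 7 days before readout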
# test-context: second compound 3.16 µM; first compound 3.16 µM; hits give low values
Reported viability, T/C values are given for each entry in this list.

See these solved cases before continuing.
{"molecule": "COc1ccc([C@@H](O)c2cc(-c3ncnc4cc(N5CCOCC5)ccc34)c(F)cc2Cl)nn1 + CN1CCN(c2cc(C(=O)Nc3cc4cc(-c5cnn(C)c5)ccc4cn3)ccn2)CC1", "parameter-measured": "viability, T/C", "result": "2.9%"}
{"molecule": "Nc1ccccc1NC(=O)c1ccc(CNC(=O)OCc2cccnc2)cc1 + CN1CCN(c2cc(C(=O)Nc3cc4cc(-c5cnn(C)c5)ccc4cn3)ccn2)CC1", "parameter-measured": "viability, T/C", "result": "1.99%"}

API: the following record is the query input.
Query: Which value of viability, T/C has been reported for COC1C=CCC(C)C(C)S(=O)(=O)NC(=O)c2ccc3c(c2)N(CC2CCC21)CC1(CCCc2cc(Cl)ccc21)CO3 (stereo not drawn) + CNC(=O)c1ccc(Nc2nc(OC3CCCC3)c3c(-c4ccc5nc(C)oc5c4)c[nH]c3n2)c(OC)c1 in the records?
Result: 40.4%

###

Items are presented alongside their recorded viability, T/C.
# Tested on: 996289-038-R-J1-PDC complex spheroid viability
# test-summary: Anticancer human tumor 996289-038-R-J1-PDC cell line growth inhibition [CLK];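 further: spheroids exposed to the agents for 7 days before readout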
# test-context: second compound 10 µM; first compound 0.0316 µM; hits give low values
Number only, in %; omit the unit.

Here are 5 molecules together with their reported answers.
{"molecule": "CC(=O)O[C@H]1C(=O)[C@@]2(C)[C@H]([C@H](OC(=O)c3ccccc3)[C@]3(O)C[C@H](OC(=O)[C@H](O)[C@@H](NC(=O)c4ccccc4)c4ccccc4)C(C)=C1C3(C)C)[C@]1(OC(C)=O)CO[C@@H]1C[C@@H]2O + CN1CCN(c2cc(C(=O)Nc3cc4cc(-c5cnn(C)c5)ccc4cn3)ccn2)CC1", "recorded-number": 1.84}
{"molecule": "CC1COCCN1c1cc(C2(S(C)(=N)=O)CC2)nc(-c2ccnc3[nH]ccc23)n1 (configuration not stated) + CN1CCN(c2cc(C(=O)Nc3cc4cc(-c5cnn(C)c5)ccc4cn3)ccn2)CC1", "recorded-number": 1.62}
{"molecule": "COc1c(OCCCN2CCOCC2)ccc2c3n(c(=NC(=O)c4cnc(N)nc4)nc12)CCN3 + CN1CCN(c2cc(C(=O)Nc3cc4cc(-c5cnn(C)c5)ccc4cn3)ccn2)CC1", "recorded-number": 0.74}
{"molecule": "Cn1ncnc1[C@H]1c2n[nH]c(=O)c3cc(F)cc(c23)N[C@@H]1c1ccc(F)cc1 + CNC(=O)c1ccc(Nc2nc(OC3CCCC3)c3c(-c4ccc5nc(C)oc5c4)c[nH]c3n2)c(OC)c1", "recorded-number": 63}
{"molecule": "CC1(C)CCC(CN2CCN(c3ccc(C(=O)NS(=O)(=O)c4ccc(NCC5CCOCC5)c([N+](=O)[O-])c4)c(Oc4cnc5[nH]ccc5c4)c3)CC2)=C(c2ccc(Cl)cc2)C1 + CNC(=O)c1ccc(Nc2nc(OC3CCCC3)c3c(-c4ccc5nc(C)oc5c4)c[nH]c3n2)c(OC)c1", "recorded-number": 61.5}

Query: Using the record for Nc1ccccc1NC(=O)c1ccc(CNC(=O)OCc2cccnc2)cc1 + CN1CCN(c2cc(C(=O)Nc3cc4cc(-c5cnn(C)c5)ccc4cn3)ccn2)CC1 , report its viability, T/C.
Result: 0.41

Query: Repeat for the following molecule: CCc1c2c(nc3ccc(O)cc13)-c1cc3c(c(=O)n1C2)COC(=O)[C@]3(O)CC + CN1CCN(c2cc(C(=O)Nc3cc4cc(-c5cnn(C)c5)ccc4cn3)ccn2)CC1
Result: 0.56

###

# System: 996289-038-R-J1-PDC complex spheroid viability
# test-summary: Anticancer human tumor 996289-038-R-J1-PDC cell line growth inhibition [CLK]; active means viability on the fitted dose curve at most 10% of control; inactive means the rest;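 further: spheroids exposed to the agents for 7 days before readout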
# test-context: second compound 10 µM; first compound 3.16 µM
Outcome field: choose from 1 = active, 0 = inactive

Example results:
{"molecule": "C=CC(=O)N1CCN(c2nc(=O)n(-c3c(C)ccnc3C(C)C)c3nc(-c4c(O)cccc4F)c(F)cc23)C(C)C1 (stereo not given) + CN1CCN(c2cc(C(=O)Nc3cc4cc(-c5cnn(C)c5)ccc4cn3)ccn2)CC1", "assigned-category": 1}
{"molecule": "CC(=O)O[C@H]1C(=O)[C@@]2(C)[C@H]([C@H](OC(=O)c3ccccc3)[C@]3(O)C[C@H](OC(=O)[C@H](O)[C@@H](NC(=O)c4ccccc4)c4ccccc4)C(C)=C1C3(C)C)[C@]1(OC(C)=O)CO[C@@H]1C[C@@H]2O + CNC(=O)c1ccc(Nc2nc(OC3CCCC3)c3c(-c4ccc5nc(C)oc5c4)c[nH]c3n2)c(OC)c1", "assigned-category": 0}
{"molecule": "O=c1[nH]cc(F)c(=O)[nH]1 + CNC(=O)c1ccc(Nc2nc(OC3CCCC3)c3c(-c4ccc5nc(C)oc5c4)c[nH]c3n2)c(OC)c1", "assigned-category": 0}
{"molecule": "CC(Nc1ccc2c(c1)OCCn1cc(N3C(=O)OCC3C(F)F)nc1-2)C(N)=O (stereo not given) + CNC(=O)c1ccc(Nc2nc(OC3CCCC3)c3c(-c4ccc5nc(C)oc5c4)c[nH]c3n2)c(OC)c1", "assigned-category": 0}
{"molecule": "COc1ccc([C@@H](O)c2cc(-c3ncnc4cc(N5CCOCC5)ccc34)c(F)cc2Cl)nn1 + CNC(=O)c1ccc(Nc2nc(OC3CCCC3)c3c(-c4ccc5nc(C)oc5c4)c[nH]c3n2)c(OC)c1", "assigned-category": 0}

Query: What call does the record list for COc1ccc([C@@H](O)c2cc(-c3ncnc4cc(N5CCOCC5)ccc34)c(F)cc2Cl)nn1 + CN1CCN(c2cc(C(=O)Nc3cc4cc(-c5cnn(C)c5)ccc4cn3)ccn2)CC1 ?
Result: 1

Query: Cool, now Nc1ccccc1NC(=O)c1ccc(CNC(=O)OCc2cccnc2)cc1 + CN1CCN(c2cc(C(=O)Nc3cc4cc(-c5cnn(C)c5)ccc4cn3)ccn2)CC1
Result: 1

Query: Then COC1C=CCC(C)C(C)S(=O)(=O)NC(=O)c2ccc3c(c2)N(CC2CCC21)CC1(CCCc2cc(Cl)ccc21)CO3 (stereo not given) + CNC(=O)c1ccc(Nc2nc(OC3CCCC3)c3c(-c4ccc5nc(C)oc5c4)c[nH]c3n2)c(OC)c1 ?
Result: 0

Query: How about this molecule: COC1C=CCC(C)C(C)S(=O)(=O)NC(=O)c2ccc3c(c2)N(CC2CCC21)CC1(CCCc2cc(Cl)ccc21)CO3 (stereo not given) + CN1CCN(c2cc(C(=O)Nc3cc4cc(-c5cnn(C)c5)ccc4cn3)ccn2)CC1
Result: 1

Query: Do the same for C=C(F)C(=O)N1CCN(c2nc(OCC3CCCN3C)nc3c2CCN(c2cccc4cccc(Cl)c24)C3)CC1CC#N (stereo not given) + CN1CCN(c2cc(C(=O)Nc3cc4cc(-c5cnn(C)c5)ccc4cn3)ccn2)CC1 please
Result: 1

Query: Now consider C=CC(=O)N1CCN(c2nc(=O)n(-c3c(C)ccnc3C(C)C)c3nc(-c4c(O)cccc4F)c(F)cc23)C(C)C1 (stereo not given) + CNC(=O)c1ccc(Nc2nc(OC3CCCC3)c3c(-c4ccc5nc(C)oc5c4)c[nH]c3n2)c(OC)c1 .
Result: 0

Query: Note, next up: C=C(F)C(=O)N1CCN(c2nc(OCC3CCCN3C)nc3c2CCN(c2cccc4cccc(Cl)c24)C3)CC1CC#N (stereo not given) + CNC(=O)c1ccc(Nc2nc(OC3CCCC3)c3c(-c4ccc5nc(C)oc5c4)c[nH]c3n2)c(OC)c1
Result: 0

Query: Please do the same for O=C(c1cc(Cc2n[nH]c(=O)c3ccccc23)ccc1F)N1CCN(C(=O)C2CC2)CC1 + CN1CCN(c2cc(C(=O)Nc3cc4cc(-c5cnn(C)c5)ccc4cn3)ccn2)CC1 as well.
Result: 1

Query: Repeat for the following molecule: CC1COCCN1c1cc(C2(S(C)(=N)=O)CC2)nc(-c2ccnc3[nH]ccc23)n1 (stereo not given) + CNC(=O)c1ccc(Nc2nc(OC3CCCC3)c3c(-c4ccc5nc(C)oc5c4)c[nH]c3n2)c(OC)c1
Result: 0
